Values compiled from ChEMBL document CHEMBL4138123.

system: HCT-15; assay: Cytotoxicity against human HCT15 cells assessed as cell growth at 0.01 uM after 48 hrs by sulforhodamine B assay relative to control; assay type: functional; conditions: HCT-15, 48 h, read-out: Activity
This section presents compounds with their documented growth at 0.01 µM values.

Smiles Repr: COc1cc(C(=O)/C=C/c2cc(-c3cc(OC)c(OC)c(OC)c3)n[nH]2)cc(OC)c1OC
Experimental Target: HCT-15
growth at 0.01 µM: 95%
--
Smiles Repr: COc1cc(-c2cc(/C=C/C(=O)c3ccc4c(c3)OCO4)[nH]n2)cc(OC)c1OC
Experimental Target: HCT-15
growth at 0.01 µM: 95%

Query: Name the reported growth at 0.01 µM value associated with the compound COc1ccc(-c2cc(/C=C/C(=O)c3ccc(OC)c(OC)c3)[nH]n2)cc1
Reply: 95%

Query: Fill in: growth at 0.01 µM of COc1ccc(C(=O)/C=C/c2cc(-c3ccc4c(c3)OCO4)n[nH]2)cc1OC is ___
Reply: 92%
